Each entry below lists one item and its recorded CC50 value.
# Test system: CAKI-1
# assay: Growth inhibition of human CAKI-1 cells by sulforhodamine B assay
# Type: functional
# conditionInfo: read-out: pLC50 (the source's name) (converted)

>  <compoundStructureString>
C/C=C(/C)C(=O)O[C@@H]1CC(C)(C)C[C@H]2C3=CC[C@@H]4[C@@]5(C)CC[C@H](O)C(C)(C)[C@@H]5CC[C@@]4(C)[C@]3(C)CC[C@@]12C(=O)O

>  <testedTarget>
CAKI-1

>  <CC50>
56.2 µM

$$$$
>  <compoundStructureString>
C/C=C(/C)C(=O)O[C@@H]1CC(C)(C)C[C@H]2C3=CC[C@@H]4[C@@]5(C)CCC(=O)C(C)(C)[C@@H]5CC[C@@]4(C)[C@]3(C)CC[C@@]12C(=O)O

>  <testedTarget>
CAKI-1

>  <CC50>
> 100 µM

$$$$
>  <compoundStructureString>
CC1(C)C[C@@H](O)[C@]2(C(=O)O)CC[C@]3(C)C(=CC[C@@H]4[C@@]5(C)C/C(=C\C=C\c6ccccc6)C(=O)C(C)(C)[C@@H]5CC[C@]43C)[C@@H]2C1

>  <testedTarget>
CAKI-1

>  <CC50>
> 100 µM

$$$$
>  <compoundStructureString>
CC(C)=CC(=O)O[C@@H]1CC(C)(C)C[C@H]2C3=CC[C@@H]4[C@@]5(C)CC[C@H](O)C(C)(C)[C@@H]5CC[C@@]4(C)[C@]3(C)CC[C@@]12C(=O)O

>  <testedTarget>
CAKI-1

>  <CC50>
> 100 µM

$$$$
>  <compoundStructureString>
CC(C)=CC(=O)O[C@@H]1CC(C)(C)C[C@H]2C3=CC[C@@H]4[C@@]5(C)CCC(=O)C(C)(C)[C@@H]5CC[C@@]4(C)[C@]3(C)CC[C@@]12C(=O)O

>  <testedTarget>
CAKI-1

>  <CC50>
> 100 µM

$$$$

---

Catalogue of GI50 values
# Test system: UO-31
# assay: Growth inhibition of human UO31 cells by sulforhodamine B assay
# Type: functional
# conditionInfo: read-out: pGI50 (converted)
measurementLabel: GI50

>  <compound>
C/C=C(/C)C(=O)O[C@@H]1CC(C)(C)C[C@H]2C3=CC[C@@H]4[C@@]5(C)CCC(=O)C(C)(C)[C@@H]5CC[C@@]4(C)[C@]3(C)CC[C@@]12C(=O)O [LANTADENE A]

>  <readoutValue>
3.47 µM

$$$$
>  <compound>
CC1(C)C[C@@H](O)[C@]2(C(=O)O)CC[C@]3(C)C(=CC[C@@H]4[C@@]5(C)C/C(=C\C=C\c6ccccc6)C(=O)C(C)(C)[C@@H]5CC[C@]43C)[C@@H]2C1

>  <readoutValue>
3.39 µM

$$$$
>  <compound>
C/C=C(/C)C(=O)O[C@@H]1CC(C)(C)C[C@H]2C3=CC[C@@H]4[C@@]5(C)CC[C@H](O)C(C)(C)[C@@H]5CC[C@@]4(C)[C@]3(C)CC[C@@]12C(=O)O [Reduced Lantadene A]

>  <readoutValue>
1.66 µM

$$$$
>  <compound>
CC(C)=CC(=O)O[C@@H]1CC(C)(C)C[C@H]2C3=CC[C@@H]4[C@@]5(C)CCC(=O)C(C)(C)[C@@H]5CC[C@@]4(C)[C@]3(C)CC[C@@]12C(=O)O

>  <readoutValue>
2.95 µM

$$$$
>  <compound>
CC(C)=CC(=O)O[C@@H]1CC(C)(C)C[C@H]2C3=CC[C@@H]4[C@@]5(C)CC[C@H](O)C(C)(C)[C@@H]5CC[C@@]4(C)[C@]3(C)CC[C@@]12C(=O)O [Reduced Lantadene B]

>  <readoutValue>
3.72 µM

$$$$
